Every entry's value here was drawn from ChEMBL document CHEMBL3431459.

# reported IC50; entries follow
# Measured Target: Carnitine O-palmitoyltransferase 1, muscle isoform (Homo sapiens)
# Sequence (Q92523 whole entry, canonical isoform): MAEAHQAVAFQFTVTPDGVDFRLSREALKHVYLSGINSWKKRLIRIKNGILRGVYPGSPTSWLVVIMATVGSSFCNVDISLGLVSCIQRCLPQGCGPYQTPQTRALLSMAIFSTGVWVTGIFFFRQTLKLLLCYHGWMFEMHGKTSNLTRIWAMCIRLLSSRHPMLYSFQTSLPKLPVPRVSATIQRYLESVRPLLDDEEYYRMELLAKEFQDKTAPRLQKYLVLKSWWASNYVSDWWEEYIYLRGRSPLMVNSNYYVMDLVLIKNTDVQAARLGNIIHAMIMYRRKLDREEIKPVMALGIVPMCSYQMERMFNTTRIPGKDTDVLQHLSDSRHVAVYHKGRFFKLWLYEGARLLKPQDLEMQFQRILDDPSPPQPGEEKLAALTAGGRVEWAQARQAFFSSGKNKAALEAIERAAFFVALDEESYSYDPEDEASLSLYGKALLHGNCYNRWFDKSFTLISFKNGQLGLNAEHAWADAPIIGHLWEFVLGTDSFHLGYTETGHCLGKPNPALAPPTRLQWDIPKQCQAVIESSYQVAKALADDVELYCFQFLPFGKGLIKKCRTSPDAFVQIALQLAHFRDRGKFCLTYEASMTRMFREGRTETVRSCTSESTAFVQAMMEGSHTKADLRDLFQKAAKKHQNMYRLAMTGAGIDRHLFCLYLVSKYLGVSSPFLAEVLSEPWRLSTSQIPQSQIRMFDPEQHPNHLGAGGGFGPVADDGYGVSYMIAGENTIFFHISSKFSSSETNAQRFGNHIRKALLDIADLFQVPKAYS
# Experimental Details: SUPPLEMENTARY: Inhibition of Carnitine palmitoyltransferase 1, muscle isoform
Endpoint Name: IC50 (µM)

molecule=COc1ccc(Cl)cc1CN1C(=O)OC(C)(C)c2ccc(C(=O)Nc3ccc(C(=O)O)c(Cl)c3)cc21 endpoint_name=IC50 op== result_number=1.22
molecule=COc1ccc(Cl)cc1S(=O)(=O)N1C[C@@H](C(=O)O)Oc2ccc(C(=O)Nc3ccccc3)cc21 endpoint_name=IC50 op== result_number=16.9
molecule=COc1ccc(Cl)cc1S(=O)(=O)c1c[nH]c2ccc(C(=O)Nc3nc(CC(=O)O)cs3)cc12 endpoint_name=IC50 op== result_number=0.202
molecule=COc1ccc(Cl)cc1CN(C(=O)C(C)C)c1cc(C(=O)Nc2nc(CC(=O)O)cs2)ccc1Cl endpoint_name=IC50 op== result_number=2.56
molecule=COc1ccc(Cl)cc1S(=O)(=O)c1c2cc(C(=O)Nc3ccccc3)ccc2nn1C endpoint_name=IC50 op=> result_number=100
molecule=COC(=O)c1ccc(-c2nc([C@H]3CCCCN3C(=O)COc3ccccc3)cs2)cc1 endpoint_name=IC50 op=> result_number=100
molecule=O=C(COc1ccccc1)N1CCCC[C@@H]1c1csc(-c2ccc(C(F)(F)F)nc2)n1 endpoint_name=IC50 op=> result_number=100
molecule=NC(=O)c1ccc(C#C[C@H]2CCCCN2C(=O)COc2ccccc2)cc1 endpoint_name=IC50 op== result_number=9.88
molecule=Cc1nn(C)c(-c2noc([C@H]3CCCCN3C(=O)COc3ccccc3)n2)c1Cl endpoint_name=IC50 op=> result_number=100
molecule=O=C(O)Cc1csc(NC(=O)c2ccc3c(c2)N(S(=O)(=O)c2cccc(Cl)c2)CC3)n1 endpoint_name=IC50 op== result_number=0.601
molecule=CC(=O)Nc1cc(-c2n[nH]c([C@H]3CCCCN3C(=O)COc3ccccc3)n2)ccc1F endpoint_name=IC50 op=> result_number=100
molecule=O=C(O)c1ccc(NC(=O)c2ccc3c(c2)N(S(=O)(=O)c2cccc(Cl)c2)CCS3(=O)=O)cc1 endpoint_name=IC50 op== result_number=15.5
molecule=O=C(COc1ccccc1)N1CCCC[C@@H]1c1noc(-c2cc[nH]n2)n1 endpoint_name=IC50 op=> result_number=100
molecule=CCCN(c1cc(C(=O)Nc2ccc(CC(=O)O)cc2)cc2c1OCO2)S(=O)(=O)c1cc(Cl)ccc1OC endpoint_name=IC50 op== result_number=0.955
molecule=CC(=O)c1ccc(-c2nc([C@H]3CCCCN3C(=O)COc3ccccc3)no2)cc1 endpoint_name=IC50 op=> result_number=100
molecule=COc1ccc(Cl)cc1S(=O)(=O)N1CCOc2ncc(C(=O)Nc3ccccc3)cc21 endpoint_name=IC50 op=> result_number=100
molecule="CCc1ccc(CCOc2ccc(CC3SC(=O)NC3=O)cc2)nc1 (centres undefined) [PIOGLITAZONE]" endpoint_name=IC50 op=> result_number=100
molecule=COc1ccc(Cl)cc1S(=O)(=O)c1cn(CCCC(=O)O)c2ccc(C(=O)Nc3ccccc3)cc12 endpoint_name=IC50 op== result_number=12
molecule="NS(=O)(=O)c1ccc(-c2noc(C3C4CC4CN3C(=O)COc3ccccc3)n2)cc1 (centres undefined)" endpoint_name=IC50 op=> result_number=100
